Ref: patent US12497364B2

Molecular target: FKBP12 (Homo sapiens, UniProt P62942)
Sequence (P62942 whole entry): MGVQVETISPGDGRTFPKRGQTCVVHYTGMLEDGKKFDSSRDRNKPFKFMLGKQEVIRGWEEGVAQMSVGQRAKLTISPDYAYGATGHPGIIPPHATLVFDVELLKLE
Assay: QCM microgravimetric measurement of FKBP12 bound to the self-assembled monolayer (SAM), Langmuir fit
Details: Table 2; SAM on gold-coated quartz crystal, T=20.0 °C; pseudo-Kd for mixed systems
measured.property: pKd
Numbers only, as −log10 of the molar value.

// pKd value for O=C(CCCCCCCCCCS)Oc1ccc(C(=O)C(=O)N2CCCC[C@H]2C(=O)NCCCc2ccccc2)cc1 [GPS-SH1] : 9.12
